System: LOX IMVI melanoma
ASSAY NOTES: NCI-60 one-dose screen, 48 h (100 = growth as untreated, 0 = no growth, -100 = all killed)
CONDITION SUMMARY: 10 µM
Compounds without any hit were thinned out: in the full panel of roughly 83,000, 20% have a hit.
Grouping rule (growth): bottom (below 20%), middle (20% to below 80%), top (80% or more)

Please indicate the class for N#CN1CC[C@H](C(=O)Nc2ncc(-c3ccncc3)s2)C1 based on its growth.
bottom

Band for the recorded growth of COc1ccc(-c2cn[nH]c2-c2cc(OC)c(OC)c(OC)c2)cc1 ?
middle

Lab log: CN(C1c2ccccc2Oc2ccccc21)S(=O)(=O)c1cc(Cl)ccc1Cl — assign growth category
middle

Next:
Assign a bin to COc1ccc2oc(=O)cc(C3c4ccc([nH]4)C(c4cc(=O)oc5ccc(OC)cc45)c4ccc([nH]4)C(c4cc(=O)oc5ccc(OC)cc45)c4ccc([nH]4)C(c4cc(=O)oc5ccc(OC)cc45)c4ccc3[nH]4)c2c1 (configuration not stated)
bottom

Each compound maps to one class by growth. Which class for CC(=O)CS(C)(=O)=O ?
top

Record CC(=O)/C(=C\c1ccc(Cl)cc1)c1ccccc1 — which class?
bottom

Class? Entry: C[C@@H]1C(=O)N(C[C@H](Cc2ccccc2)NC(=O)OCc2ccccc2)[C@]1(Cc1ccccc1)C(=O)OCc1ccccc1
middle

Into which bin does this compound go? COc1ccc(C2CC(c3ccc(-c4ccccc4)cc3)=NN2c2ccc(S(N)(=O)=O)cc2)cc1 (configuration not stated)
middle

Which growth category applies to COc1cc(Cn2c(-c3ccccc3)cc3c2-c2oncc2CC3)cc(OC)c1 here?
middle

Could you place CCc1ccc(Nc2cc(C)nc3nc(C)nn23)cc1 in its proper category? Many thanks.
bottom

###

System: SW-620 colon
ASSAY NOTES: NCI-60 one-dose screen, 48 h (100 = growth as untreated, 0 = no growth, -100 = all killed)
CONDITION SUMMARY: 10 µM
This is part of a sample that, as a whole, favours compounds with a hit. Of some 83,000 tested, about 20% had one in any assay.
Please mark met if the recorded growth is equal to or greater than 40%, and not met if it falls below.

Please review the entries below; each comes with its answer.
Is growth at least 40%? Consider Oc1[nH]c2ccccc2c1/C=c1/cc2c(c(-c3ccc(C(F)(F)F)cc3)n1)=Nc1ccccc1-2
met

Quick check: does CCN(CC)CCCOC(=O)Nc1ccccc1Cl have growth greater than or equal to 40%?
met

Is reported growth greater than or equal to 40% here: Cc1ccc(Cl)cc1Nc1nc(C(F)(F)F)ccc1C(=O)N/N=C/c1c(Cl)cccc1Cl
not met

***
State whether the measured growth reaches 40%, counting equality as reaching it, for NC(=O)C12C(=O)NC(=O)C1(C(=O)O)C21CCCC1 (centres undefined)
met

Reported growth at or above 40%? O=C1CC[C@@H](C(=O)N[C@H]2CSSC[C@@H](C(=O)N/C=C/c3ccc(O)cc3)NC(=O)[C@H](Cc3ccccc3)NC(=O)[C@@H]3CCCN3C(=O)[C@@H]3CCCN3C2=O)N1
met

Check the entry O=C(O)c1ccc(CNc2ccc(C(=O)CCl)cc2)cc1 : does growth equal or exceed 40%?
met

Check this molecule for growth at or above 40%: Nc1nc2c(nnn2C2CC(O)C(CO)O2)c(=O)[nH]1 (centres undefined)
not met

Determine whether measured growth meets or exceeds 40% for CC(=O)n1nc(C(=O)OC(C)(C)C)c2cc(F)c(F)cc21
met

Is it the case that CN(C)c1ccc2cc(-c3cc4c(oc3=O)-c3ccccc3OC4O)c(=O)oc2c1 (centres undefined) has growth reaching or exceeding 40%?
not met
